Values from patent US8791268B2

# System tested: vanilloid receptor (VR1) (Homo sapiens (Human))
# Sequence (Q8NER1 whole entry): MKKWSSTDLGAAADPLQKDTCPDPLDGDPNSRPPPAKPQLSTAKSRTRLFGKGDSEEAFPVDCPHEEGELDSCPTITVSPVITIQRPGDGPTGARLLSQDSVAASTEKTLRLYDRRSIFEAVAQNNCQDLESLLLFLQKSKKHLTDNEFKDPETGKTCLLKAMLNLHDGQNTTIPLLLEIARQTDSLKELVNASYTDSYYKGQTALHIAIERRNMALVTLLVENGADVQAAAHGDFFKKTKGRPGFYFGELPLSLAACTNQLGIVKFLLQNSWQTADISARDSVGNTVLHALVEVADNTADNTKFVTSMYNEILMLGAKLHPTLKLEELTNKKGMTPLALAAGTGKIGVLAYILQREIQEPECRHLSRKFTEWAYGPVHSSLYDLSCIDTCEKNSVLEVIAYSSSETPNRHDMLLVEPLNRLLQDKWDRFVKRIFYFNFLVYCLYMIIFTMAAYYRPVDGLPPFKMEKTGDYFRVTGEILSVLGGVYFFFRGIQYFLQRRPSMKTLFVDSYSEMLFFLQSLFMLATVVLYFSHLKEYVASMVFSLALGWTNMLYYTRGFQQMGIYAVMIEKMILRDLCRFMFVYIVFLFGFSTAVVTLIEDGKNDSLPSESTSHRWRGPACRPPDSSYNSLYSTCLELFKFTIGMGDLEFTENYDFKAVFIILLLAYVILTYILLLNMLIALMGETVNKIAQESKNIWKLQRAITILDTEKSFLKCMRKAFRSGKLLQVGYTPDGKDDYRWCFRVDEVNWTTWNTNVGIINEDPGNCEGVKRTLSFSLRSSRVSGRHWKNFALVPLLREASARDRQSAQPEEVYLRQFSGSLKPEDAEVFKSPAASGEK
# Measurement protocol: FLIPR Ca2+ influx assay on CHO-K1 cells transfected with the human VR1 gene, capsaicin stimulus (Pharmacological Method II)
Please respond with reported pKi for every item in the list.
Numbers only, as −log10 of the molar value.

Examples with answers:
• CC1CCN(c2nc(C(F)(F)F)ccc2CNC(=O)Cc2cc(F)ccc2F)CC1 = 7.52
• CC1CCN(c2nc(C(F)(F)F)ccc2CNC(=O)Cc2cc(Br)cc(Br)c2)CC1 = 7.39

Req: Data request, read-out pKi, for CC1CCN(c2nc(C(F)(F)F)ccc2CNC(=O)C(C)c2cc(F)cc(F)c2)CC1 (stereo not drawn)
Resp: 7.61
